Tested on: K-562 leukemia
Experiment: NCI tumour cell line growth inhibition, 48 h
Please provide measured TGI for the entries that follow.

Examples with answers:
compound | data-value
COC1(OC)CC(CO)(COc2cc(Cl)nc(N)n2)C1 | > 100 µM
CC1(C)CC(=O)C(CC2C(=O)CCCC2=O)C(=O)C1 | > 100 µM
Cc1ccc2ccccc2c1CSc1nc(N)nc2c1ncn2CC(C)C | > 100 µM
COC(=O)CC[C@@H](C)[C@H]1CC[C@H]2[C@@H]3CC[C@@H]4C[C@H](O)CC[C@]4(C)[C@H]3CC[C@]12C | 65.7 µM
O=C(CSc1nc2ccc(I)cc2c(=O)n1Cc1ccccc1)Nc1ccccc1 | > 100 µM

Hi team, please reply with TGI for each item in this list.
1. O=C1CCCC1CC(CN1CCOCC1)Sc1nnnn1-c1ccccc1 (stereo unspecified)
2. Oc1ccc(-c2nc3cc(C(F)(F)F)ccc3s2)cc1
3. C=CCc1c(O)c(C(=O)/C=C/c2ccc(Cl)cc2)c(OC)c2ccoc12
4. CN(C(=O)C(C)(C)C)c1ccccc1I(=O)=O
5. CSc1nnnc2ccccc12
6. Cc1ccsc1C(NC(=O)c1ccccc1)c1cc(Cl)c2cccnc2c1O (stereo unspecified)

## Result
> 100 µM
> 100 µM
> 100 µM
35.5 µM
> 100 µM
> 100 µM
